Every entry's value here was drawn from patent US5804577A.

- Test system: S. aureus 6538
- experimental_details: MIC by agar dilution method in Mueller Hinton agar
- Assay type: cell-based
- experimental_context: Staphylococcus aureus, 6538
value_kind: MIC (µg/mL)
Reply numerically in µg/mL, unit not repeated.

Nc1nc(/C(=N/O)C(=O)N[C@@H]2C(=O)N3C(C(=O)O)=C(/C=C4\CCN(c5nncs5)C4=O)CS[C@H]23)cs1
1
Nc1nc(/C(=N/O)C(=O)N[C@@H]2C(=O)N3C(C(=O)O)=C(/C=C4\CCN(c5cccc([N+](=O)[O-])c5)C4=O)CS[C@H]23)cs1
0.25
C=CC1=C(C(=O)O)N2C(=O)[C@@H](NC(=O)/C(=N\O)c3csc(N)n3)[C@H]2SC1 [I, reference compound]
0.5

Enquiry: Give reported MIC value for Nc1ccc(CN2CC/C(=C\C3=C(C(=O)O)N4C(=O)[C@@H](NC(=O)/C(=N\O)c5csc(N)n5)[C@H]4SC3)C2=O)cc1
Return: 1

Enquiry: Give reported MIC value for Nc1nc(/C(=N/O)C(=O)N[C@@H]2C(=O)N3C(C(=O)O)=C(/C=C4\CCN(Cc5nc6ccccc6[nH]5)C4=O)CS[C@H]23)cs1
Return: 1

Enquiry: Give reported MIC value for Nc1nc(/C(=N/O)C(=O)N[C@@H]2C(=O)N3C(C(=O)O)=C(/C=C4\CCN(C5CCNCC5)C4=O)CS[C@H]23)cs1
Return: 1

Enquiry: Give reported MIC value for CO/N=C(\C(=O)N[C@@H]1C(=O)N2C(C(=O)O)=C(CSc3nc(=O)c(=O)[nH]n3C)CS[C@H]12)c1csc(N)n1 [II, reference compound]
Return: 4

Enquiry: Give reported MIC value for Nc1nc(/C(=N/O)C(=O)N[C@@H]2C(=O)N3C(C(=O)O)=C(/C=C4\CCN(c5ccc(O)cc5)C4=O)CS[C@H]23)cs1
Return: 0.25

Enquiry: Give reported MIC value for Nc1nc(/C(=N/O)C(=O)N[C@@H]2C(=O)N3C(C(=O)O)=C(/C=C4\CCN(c5ccc(O)c(F)c5)C4=O)CS[C@H]23)cs1
Return: 0.5

###

- System: Acinetobacter sp. 51-156
- experimental_details: MIC by agar dilution method in Mueller Hinton agar
- Format: cell-based
- experimental_context: Acinetobacter, SP.51156
value_kind: MIC (µg/mL)
Reply numerically in µg/mL, unit not repeated.

Nc1ccc(CN2CC/C(=C\C3=C(C(=O)O)N4C(=O)[C@@H](NC(=O)/C(=N\O)c5csc(N)n5)[C@H]4SC3)C2=O)cc1
32

Continue with the next compound.
Enquiry: Give reported MIC value for Nc1nc(/C(=N/O)C(=O)N[C@@H]2C(=O)N3C(C(=O)O)=C(/C=C4\CCN(Cc5cccc(O)c5)C4=O)CS[C@H]23)cs1
Return: 32

###

Measured MIC, listed per entry.
- System: E. cloacae 908R
- experimental_details: MIC by agar dilution method in Mueller Hinton agar
- Format: cell-based
- experimental_context: Enterobacter cloacae, 908R

Nc1nc(/C(=N/O)C(=O)N[C@@H]2C(=O)N3C(C(=O)O)=C(/C=C4\CCN(c5cccc([N+](=O)[O-])c5)C4=O)CS[C@H]23)cs1 [B]
2 µg/mL

Continue with the next compound.
Enquiry: Give reported MIC value for Nc1nc(/C(=N/O)C(=O)N[C@@H]2C(=O)N3C(C(=O)O)=C(/C=C4\CCN(Cc5nc6ccccc6[nH]5)C4=O)CS[C@H]23)cs1 [H]
Return: 4 µg/mL
